- TARGET ENTITY: C. difficile toxin A from strain VPI10463 (ATCC 43255), toxinotype 0 (Clostridium difficile, UniProt P16154 1-2710)
- Sequence (P16154 whole entry): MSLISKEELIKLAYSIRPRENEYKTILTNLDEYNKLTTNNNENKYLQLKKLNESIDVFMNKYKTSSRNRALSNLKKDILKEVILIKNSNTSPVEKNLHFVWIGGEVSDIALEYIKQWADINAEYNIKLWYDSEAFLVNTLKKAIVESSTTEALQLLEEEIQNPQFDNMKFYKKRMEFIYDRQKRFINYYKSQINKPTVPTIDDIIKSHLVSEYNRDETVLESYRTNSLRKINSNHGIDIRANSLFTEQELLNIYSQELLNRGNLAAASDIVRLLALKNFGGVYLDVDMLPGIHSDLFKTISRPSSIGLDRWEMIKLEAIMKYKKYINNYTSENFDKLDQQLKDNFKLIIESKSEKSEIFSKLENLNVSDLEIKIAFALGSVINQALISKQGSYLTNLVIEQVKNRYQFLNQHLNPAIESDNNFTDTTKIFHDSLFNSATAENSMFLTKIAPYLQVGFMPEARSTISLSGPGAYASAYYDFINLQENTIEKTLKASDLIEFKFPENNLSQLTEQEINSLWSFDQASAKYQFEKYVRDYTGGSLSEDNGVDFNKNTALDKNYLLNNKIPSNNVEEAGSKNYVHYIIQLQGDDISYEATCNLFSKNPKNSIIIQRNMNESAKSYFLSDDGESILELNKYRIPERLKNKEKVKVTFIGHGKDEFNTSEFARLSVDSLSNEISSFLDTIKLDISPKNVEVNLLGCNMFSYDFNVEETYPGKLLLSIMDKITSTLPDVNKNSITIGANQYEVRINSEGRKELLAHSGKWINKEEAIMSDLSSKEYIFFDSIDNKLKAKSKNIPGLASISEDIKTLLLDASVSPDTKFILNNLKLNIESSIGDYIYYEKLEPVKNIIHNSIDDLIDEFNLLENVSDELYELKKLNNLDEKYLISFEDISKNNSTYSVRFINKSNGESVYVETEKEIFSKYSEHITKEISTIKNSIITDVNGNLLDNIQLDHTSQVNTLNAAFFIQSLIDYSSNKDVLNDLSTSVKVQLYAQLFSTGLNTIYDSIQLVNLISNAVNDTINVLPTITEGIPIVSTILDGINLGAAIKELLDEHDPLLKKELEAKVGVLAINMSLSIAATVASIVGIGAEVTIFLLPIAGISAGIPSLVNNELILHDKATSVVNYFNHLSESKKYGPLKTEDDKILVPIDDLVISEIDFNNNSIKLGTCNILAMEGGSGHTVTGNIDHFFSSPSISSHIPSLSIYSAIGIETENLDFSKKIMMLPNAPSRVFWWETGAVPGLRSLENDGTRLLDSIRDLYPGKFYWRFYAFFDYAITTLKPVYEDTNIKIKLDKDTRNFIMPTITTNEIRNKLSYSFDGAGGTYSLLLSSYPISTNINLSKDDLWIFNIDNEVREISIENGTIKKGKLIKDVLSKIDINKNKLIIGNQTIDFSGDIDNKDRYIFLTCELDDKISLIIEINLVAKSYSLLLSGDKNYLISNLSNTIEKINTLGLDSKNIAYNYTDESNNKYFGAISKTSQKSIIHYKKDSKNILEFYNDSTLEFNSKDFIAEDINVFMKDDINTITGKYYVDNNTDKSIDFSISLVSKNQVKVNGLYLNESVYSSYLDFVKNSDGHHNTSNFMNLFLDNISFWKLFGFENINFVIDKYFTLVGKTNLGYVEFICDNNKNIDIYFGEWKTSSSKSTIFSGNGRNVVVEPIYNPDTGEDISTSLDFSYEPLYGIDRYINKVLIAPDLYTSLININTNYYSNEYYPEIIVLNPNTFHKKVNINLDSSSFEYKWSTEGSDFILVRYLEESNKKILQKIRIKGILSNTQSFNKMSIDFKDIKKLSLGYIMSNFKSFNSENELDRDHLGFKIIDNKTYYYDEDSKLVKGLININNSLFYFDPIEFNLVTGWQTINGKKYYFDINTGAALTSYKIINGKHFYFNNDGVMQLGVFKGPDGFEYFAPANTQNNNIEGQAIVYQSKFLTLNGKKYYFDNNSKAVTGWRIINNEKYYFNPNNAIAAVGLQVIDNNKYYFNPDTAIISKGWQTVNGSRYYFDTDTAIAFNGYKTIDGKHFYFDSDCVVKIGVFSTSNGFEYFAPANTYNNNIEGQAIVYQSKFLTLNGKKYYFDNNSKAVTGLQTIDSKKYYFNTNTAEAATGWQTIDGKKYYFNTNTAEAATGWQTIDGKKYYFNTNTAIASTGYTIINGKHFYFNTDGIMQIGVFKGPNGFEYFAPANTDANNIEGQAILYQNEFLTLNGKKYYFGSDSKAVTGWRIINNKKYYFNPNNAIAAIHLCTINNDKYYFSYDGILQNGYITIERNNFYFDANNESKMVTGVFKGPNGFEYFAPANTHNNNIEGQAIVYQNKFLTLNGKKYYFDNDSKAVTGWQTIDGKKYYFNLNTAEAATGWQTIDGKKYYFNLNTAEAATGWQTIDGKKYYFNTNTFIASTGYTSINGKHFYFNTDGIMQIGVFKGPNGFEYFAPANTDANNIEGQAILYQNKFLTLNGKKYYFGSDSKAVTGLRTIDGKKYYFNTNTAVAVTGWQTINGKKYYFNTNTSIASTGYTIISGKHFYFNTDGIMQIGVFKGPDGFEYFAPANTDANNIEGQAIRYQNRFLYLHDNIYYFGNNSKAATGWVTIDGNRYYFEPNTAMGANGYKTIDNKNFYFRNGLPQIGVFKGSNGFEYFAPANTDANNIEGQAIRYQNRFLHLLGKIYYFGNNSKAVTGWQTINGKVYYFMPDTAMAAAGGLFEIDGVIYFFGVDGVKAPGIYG
- PROCEDURE SUMMARY: cell-based or functional assay
QUANTITY NAME: % completion cytotox (Vero cells) (%)
Answers are plain numbers, in %.

Prompt line: Please report % completion cytotox (Vero cells) for the following binder: A3 antibody (antibody, V domains shown) VH: MQLLESGGGLVKPGGSLRLSCAASGFTFSNAWMSWVRQGPGKGLEWVGRIKSKTDGGTTDYAAPVKGRFSISRNDSNNTLFLQMNSLKTEDTAVYYCTTGPQIVVVAGATSRDQPNYYYYGLDVWGLGTTVTVSS VL: QSVLTQPPSASGTPGQRVTISCSGSSSNIGINTVNWYQQLPGTAPKLLIYKSNLRPSGVPDRFSGSKSGTSASLAISGLRSEDEADYYCAAWDDSLTGLYVFGTGTKVTVLG
Response line: 90

Reference source: patent US20190153078A1
